- Study target: Pyruvate dehydrogenase kinase (Homo sapiens, UniProt Q15119+Q15120+Q16654+Q15118)
- Method summary: Binding affinity to pyruvate dehydrogenase kinase (unknown origin) by VER-00160364 probe based fluorescence polarization assay
Measured quantity: IC50 (nM)
Numbers only here, please. The scale is nM.

# query: IC50 of entry CN(C)C(=O)c1ccc2c(c1)CCCN2C(=O)c1ccc(O)cc1O
100

Another compound: C[C@H]1CCc2cc(-c3nc(C(N)=O)nc4ccccc34)ccc2N1C(=O)c1ccc(O)cc1O
100

Repeat with Cc1cc(S(=O)(=O)N2CC(F)(F)C2)cnc1-c1ccc2c(c1)CC[C@H](C)N2C(=O)c1ccc(O)cc1O
10

Check C[C@H]1CCc2cc(-c3cc4occc4cn3)ccc2N1C(=O)c1ccc(O)cc1O too.
100

Similarly, Cc1cncnc1-c1ccc2c(c1)CCC(c1cccnc1)N2C(=O)c1ccc(O)cc1O (centres undefined) ?
10

Likewise for O=C(c1ccc2c(c1)CCCN2C(=O)c1ccc(O)cc1O)N1CCC1 ?
1000

***
Give the measured IC50 of Cc1cccnc1-c1ccc2c(c1)CCCN2C(=O)c1ccc(O)cc1O .
1000

Would you mind doing CN(C(=O)c1ccc2c(c1)CCCN2C(=O)c1ccc(O)cc1O)c1cccc(F)c1 as well?
100

Also C[C@H]1CCc2cc(C(=O)N(C)Cc3cc4ccccc4[nH]3)ccc2N1C(=O)c1ccc(O)cc1O ?
100

And the next one, COc1ccc(CN(C)C(=O)c2ccc3c(c2)CCC(C)N3C(=O)c2ccc(O)cc2O)cc1OC (centres undefined) ?
100

Next compound: COc1cc(-c2ccc3c(c2)CC[C@H](C)N3C(=O)c2ccc(O)cc2O)cnc1OC
100

Next: C[C@H]1CCc2cc(-c3ccc(Cl)nc3)ccc2N1C(=O)c1ccc(O)cc1O
1000

What do we get for Nc1ccc2c(c1)CCCN2C(=O)c1ccc(O)cc1O ?
100

====

- Study target: Pyruvate dehydrogenase kinase (Homo sapiens, UniProt Q15119+Q15120+Q16654+Q15118)
- Method summary: Binding affinity to pyruvate dehydrogenase kinase (unknown origin) by VER-00160364 probe based fluorescence polarization assay
Measured quantity: IC50 (nM)
Express it in nM; write the number only.

Fill in the blank: the reported IC50 of CC1CCc2cc(-c3ncccc3C#N)ccc2N1C(=O)c1ccc(O)cc1O (stereo not given) is ____.
100

Record: CC1CCc2cc(C(=O)N(C)Cc3ccc(Cl)cc3)ccc2N1C(=O)c1cc(Cl)c(O)cc1O (stereo not given)
100

Next: C[C@H]1CCc2cc(-c3nc(Cl)nc4c3ccn4C)ccc2N1C(=O)c1ccc(O)cc1O
1000

// query: CC1CCc2cc(-c3ncccc3Cl)ccc2N1C(=O)c1ccc(O)cc1O (stereo not given)
100

Another compound: CCc1cc(C(=O)N2c3ccc(F)cc3CCC2C)c(O)cc1O (stereo not given)
10000

Try Cc1cccnc1-c1ccc2c(c1)CCC(CNS(C)(=O)=O)N2C(=O)c1ccc(O)cc1O (stereo not given) next.
100

Let us now turn to O=C(c1ccc(O)cc1O)N1c2ccccc2CCC1CNC(=O)C(F)(F)F (stereo not given)
100

Let us now turn to C[C@H]1CCc2cc(-c3cnc4ccccc4n3)ccc2N1C(=O)c1ccc(O)cc1O
1000

Check Cc1cc(S(=O)(=O)NCc2ccncc2)cnc1-c1ccc2c(c1)CC[C@H](C)N2C(=O)c1ccc(O)cc1O too.
10

Repeat for the following compound: C[C@H]1CCc2cc(-c3cc4nccnc4cn3)ccc2N1C(=O)c1ccc(O)cc1O
100

***
# query: IC50 of entry C[C@H]1CCc2cc(-c3ccnc4ccccc34)ccc2N1C(=O)c1ccc(O)cc1O
100

Now the same for Cc1ccc2c(c1)CCCN2C(=O)c1ccc(O)cc1O
100

====

- Study target: Pyruvate dehydrogenase kinase (Homo sapiens, UniProt Q15119+Q15120+Q16654+Q15118)
- Method summary: Binding affinity to pyruvate dehydrogenase kinase (unknown origin) by VER-00160364 probe based fluorescence polarization assay
Measured quantity: IC50 (nM)
The figure you give is taken to be in nM; do not add the unit.

Solved entries:
// IC50 lookup, key: Cc1sc2ncnc(-c3ccc4c(c3)CC[C@H](C)N4C(=O)c3ccc(O)cc3O)c2c1C
100

Now consider CC(=O)Nc1ccc(-c2ccc3c(c2)CC[C@H](C)N3C(=O)c2ccc(O)cc2O)c(C)n1 .
100

Repeat with CC1CCc2cc(-c3ccnn3C)ccc2N1C(=O)c1ccc(O)cc1O (centres undefined)
100

Next molecule: O=C(c1ccc(O)cc1O)N1CCCc2cc(OC(F)(F)F)ccc21
1000

Check CC(C)C(=O)Nc1ccc2c(c1)CCCN2C(=O)c1ccc(O)cc1O too.
1000

Please give the result for Cc1cc(S(=O)(=O)N2CCN(C)CC2)cnc1-c1ccc2c(c1)CC[C@H](C)N2C(=O)c1ccc(O)cc1O too.
10

New cases:
Which measured IC50 value corresponds to Cc1ccnnc1-c1ccc2c(c1)CC[C@H](C)N2C(=O)c1ccc(O)cc1O ?
100

Record: COc1cc(-c2ccc3c(c2)CC[C@H](C)N3C(=O)c2ccc(O)cc2O)ncn1
1000

Another molecule to look at: C[C@H]1CCc2cc(C(=O)N(C)Cc3ccc4nccnc4c3)ccc2N1C(=O)c1ccc(O)cc1O
10

====

- Study target: Pyruvate dehydrogenase kinase (Homo sapiens, UniProt Q15119+Q15120+Q16654+Q15118)
- Method summary: Binding affinity to pyruvate dehydrogenase kinase (unknown origin) by VER-00160364 probe based fluorescence polarization assay
Measured quantity: IC50 (nM)
Unit nM implied. Number only.

Requested read-out: IC50. Entry: COCCN(C)S(=O)(=O)c1cnc(-c2ccc3c(c2)CC[C@H](C)N3C(=O)c2ccc(O)cc2O)c(C)c1
100

Let us now turn to CC(C)c1ccc2c(c1)CCCN2C(=O)c1ccc(O)cc1O
100

Now consider C[C@H]1CCc2cc(-c3ccccc3Cl)ccc2N1C(=O)c1ccc(O)cc1O .
1000

Please give the result for O=C(c1ccc(O)cc1O)N1c2ccc(-c3ncnc4[nH]ccc34)cc2CCC1c1cccnc1 (stereo not given) too.
10

Query compound follows.
Value lookup for IC50; key = C[C@H]1CCc2cc(-c3ncccc3Cl)ccc2N1C(=O)c1ccc(O)cc1O
100

====

The entries below come with measured IC50 values attached.
- Study target: Pyruvate dehydrogenase kinase (Homo sapiens, UniProt Q15119+Q15120+Q16654+Q15118)
- Method summary: Binding affinity to pyruvate dehydrogenase kinase (unknown origin) by VER-00160364 probe based fluorescence polarization assay
Please respond with the number in nM and leave the unit unwritten.

Known results for compounds:
Given CC1CCc2cc(C(=O)N3CCC3)ccc2N1C(=O)c1ccc(O)cc1O (centres undefined) , state its recorded IC50.
100

And for C[C@H]1CCc2cc(-c3ccc(N)nn3)ccc2N1C(=O)c1ccc(O)cc1O ?
100

Subsequent entry: CC(=O)NCCNS(=O)(=O)c1cnc(-c2ccc3c(c2)CC[C@H](C)N3C(=O)c2ccc(O)cc2O)c(C)c1
10

***
Fill blank: measured IC50 of the compound Cc1cc(Cl)nnc1-c1ccc2c(c1)CC[C@H](C)N2C(=O)c1ccc(O)cc1O is ____.
10

Try the compound COCCOc1ncc(C)c(-c2ccc3c(c2)CC[C@H](C)N3C(=O)c2ccc(O)cc2O)n1
100

Another compound to check: Cc1cc(S(=O)(=O)N2CCCCC2)cnc1-c1ccc2c(c1)CC[C@H](C)N2C(=O)c1ccc(O)cc1O
10

Then what about the compound CC1CCc2cc(-c3ncccc3Cl)ccc2N1C(=O)c1cc(Cl)c(O)cc1O (centres undefined) ?
1000

Now the compound Cc1cc(N)cnc1-c1ccc2c(c1)CC[C@H](C)N2C(=O)c1ccc(O)cc1O
10

====

- Study target: Pyruvate dehydrogenase kinase (Homo sapiens, UniProt Q15119+Q15120+Q16654+Q15118)
- Method summary: Binding affinity to pyruvate dehydrogenase kinase (unknown origin) by VER-00160364 probe based fluorescence polarization assay
Measured quantity: IC50 (µM)
Field format: number, assumed µM, no unit text.

Some solved entries appear below for comparison.
# query: IC50 of entry C[C@@H]1CCc2ccccc2N1C(=O)c1ccc(O)cc1O
10

And C[C@H]1CCc2cc(-c3nc(-c4ccsc4)nc4ccccc34)ccc2N1C(=O)c1ccc(O)cc1O ?
1

One more compound: CCc1cnc(C)nc1-c1ccc2c(c1)CC[C@H](C)N2C(=O)c1ccc(O)cc1O
0.1

New cases:
So what does the record say about IC50 for O=C(c1ccc(O)cc1O)N1c2ccccc2CCC1c1ccn[nH]1 (stereo not given) ?
0.1

Repeat for the following compound: O=C(c1ccc(O)cc1O)N1c2ccccc2CC[C@@H]1c1cccnc1
0.1

====

- Study target: Pyruvate dehydrogenase kinase (Homo sapiens, UniProt Q15119+Q15120+Q16654+Q15118)
- Method summary: Binding affinity to pyruvate dehydrogenase kinase (unknown origin) by VER-00160364 probe based fluorescence polarization assay
Consider the following molecules and their measured IC50 readings.
Numeric answer only, unit nM assumed.

A selection of reference data follows.
Query IC50 on Pyruvate dehydrogenase kinase (Homo sapiens, UniProt Q15119+Q15120+Q16654+Q15118) for Cc1ccc(C)c(-c2ccc3c(c2)CC[C@H](C)N3C(=O)c2ccc(O)cc2O)n1
100

What about this molecule? COc1ccc(CN(C)C(=O)c2ccc3c(c2)CCC(C)N3C(=O)c2ccc(O)cc2O)cc1 (centres undefined)
10

Kindly review the next molecule as well.
Entry C[C@H]1CCc2cc(C(=O)N(C)Cc3ccnc(Cl)c3)ccc2N1C(=O)c1ccc(O)cc1O , system Pyruvate dehydrogenase kinase (Homo sapiens, UniProt Q15119+Q15120+Q16654+Q15118): what IC50 was measured?
100
